# procedure.summary: Mouse brain pharmacokinetic study (brain-to-plasma partition)
# Type: in vivo
# stated.conditions: male, CD1, brain and plasma (total), single oral dose 20 mg/kg, AUClast (total drug), read-out: total brain-to-plasma partition coefficient, Kp
measurement.name: Kp
# print the numeric value only

[in] Tell me the measured Kp of CC(C)(O)CNc1nnc(-c2ccc(Cl)cc2C(F)(F)F)c2ccncc12 [VEN-02XX] , please.
[out] 0.86

----------
# procedure.summary: Mouse pharmacokinetic study, 7 days oral dosing, blood
# Type: in vivo
# stated.conditions: male, C57Bl/6, mouse, whole blood; WT mice, blood, 20 mg/kg PO QD for seven days
measurement.name: half-life (h)
Quick note: give the figure in h, leave out the unit.

[in] Tell me the measured half-life of CC(C)(O)CNc1nnc(-c2ccc(Cl)cc2C(F)(F)F)c2ccncc12 [VEN-02XX] , please.
[out] 3.16

----------
# procedure.summary: Mouse pharmacokinetic study, 7 days oral dosing, blood
# Type: in vivo
# stated.conditions: male, C57Bl/6, mouse, whole blood; WT mice, blood, 20 mg/kg PO QD for seven days
measurement.name: Cmax (µM)
Quick note: give the figure in µM, leave out the unit.

[in] Tell me the measured Cmax of CC(C)(O)CNc1nnc(-c2ccc(Cl)cc2C(F)(F)F)c2ccncc12 [VEN-02XX] , please.
[out] 20.7

----------
# Test system: NLRP3 inflammasome, IL-18 in iPSC-derived microglia
# procedure.summary: iPSC-derived microglia in vitro assay, secreted IL-18
# Type: cell-based
# stated.conditions: compound added before LPS priming, geometric mean, n = 5
# Description: iPSC-derived microglia (BX-0900, BrainXell, Madison, WI) were thawed and recovered as per the supplier’s instructions. […]
measurement.name: pIC50
As a rule, pIC50 stands for the negative log10 of the concentration, concentration in M.

[in] Tell me the measured pIC50 of CC(C)(O)CNc1nnc(-c2ccc(Cl)cc2C(F)(F)F)c2ccncc12 [VEN-02XX] , please.
[out] 6.55

----------
# target.or.system: human NLRP3 (Homo sapiens, UniProt Q96P20)
# Sequence (Q96P20 whole entry): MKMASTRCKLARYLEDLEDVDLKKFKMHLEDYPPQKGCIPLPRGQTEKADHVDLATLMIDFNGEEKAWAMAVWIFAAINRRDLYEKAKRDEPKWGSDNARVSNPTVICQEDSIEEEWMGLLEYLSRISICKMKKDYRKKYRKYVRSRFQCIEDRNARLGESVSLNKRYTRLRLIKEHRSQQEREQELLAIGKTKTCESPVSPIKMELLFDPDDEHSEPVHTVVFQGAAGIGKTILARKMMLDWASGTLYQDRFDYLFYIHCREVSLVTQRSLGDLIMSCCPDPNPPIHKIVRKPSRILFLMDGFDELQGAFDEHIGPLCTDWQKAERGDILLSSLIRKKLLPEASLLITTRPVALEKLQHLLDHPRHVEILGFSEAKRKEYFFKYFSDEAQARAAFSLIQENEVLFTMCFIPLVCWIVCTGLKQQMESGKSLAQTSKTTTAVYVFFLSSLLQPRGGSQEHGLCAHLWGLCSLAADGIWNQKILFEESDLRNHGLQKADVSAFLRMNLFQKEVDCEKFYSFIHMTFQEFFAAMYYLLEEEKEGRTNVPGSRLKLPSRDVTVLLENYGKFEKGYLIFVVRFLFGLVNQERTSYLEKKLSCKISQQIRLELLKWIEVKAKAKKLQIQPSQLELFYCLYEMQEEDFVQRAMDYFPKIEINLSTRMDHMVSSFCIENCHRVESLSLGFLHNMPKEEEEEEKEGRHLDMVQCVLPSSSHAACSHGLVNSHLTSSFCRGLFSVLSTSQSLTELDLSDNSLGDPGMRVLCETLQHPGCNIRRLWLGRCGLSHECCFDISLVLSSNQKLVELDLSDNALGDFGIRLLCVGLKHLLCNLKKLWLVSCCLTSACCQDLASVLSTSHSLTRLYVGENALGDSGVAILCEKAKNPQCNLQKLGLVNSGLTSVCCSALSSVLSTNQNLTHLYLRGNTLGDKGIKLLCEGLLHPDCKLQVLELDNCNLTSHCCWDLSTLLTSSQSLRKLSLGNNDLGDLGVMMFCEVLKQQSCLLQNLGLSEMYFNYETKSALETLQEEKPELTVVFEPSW
# procedure.summary: SPR analysis of interaction with human NLRP3
# stated.conditions: human NLRP3
measurement.name: Kd (nM)
Quick note: give the figure in nM, leave out the unit.

[in] Tell me the measured Kd of CC(C)(O)CNc1nnc(-c2ccc(Cl)cc2C(F)(F)F)c2ccncc12 [VEN-02XX] , please.
[out] 93.3
